The measurements presented in this section are drawn from paper PMC7949025.

- Tested target: T1, biotinylated V112E-PNT domain (ETV6 residues 43-135, V112E, with Avitag) (human, UniProt P41212 43-135, V112E, biotin on the Avitag (~50 to 95% biotinylated))
- T1 construct: ETV6, human, residues 43-135 of V112E ETV6; also called biotinylated V112E-PNT domain ligand; V112E-PNT domain ligand; source: E. coli BL21 (λDE3) co-transformed with pET21a-BirA, purified (Ni-NTA, thrombin cleavage); not shown: His6, N-terminal, cleaved; Avitag, N-terminal, kept
- T1 sequence (looked up): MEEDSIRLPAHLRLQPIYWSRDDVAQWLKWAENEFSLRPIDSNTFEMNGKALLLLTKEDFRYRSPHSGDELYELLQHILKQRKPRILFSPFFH
- Assay: SPR; biotinylated V112E-PNT domain ligand captured on streptavidin Sensor Chip SA, PNT domain analytes flowed; Biacore X100, 25 °C, HBS-EP+ (10 mM HEPES, 150 mM NaCl, 3 mM EDTA, 0.05% v/v Tween-20, pH 7.4); analyte 0.2-60 nM, re-run at 20-6000 nM if KD > 60 nM
- Details: both partners purified
Readout type: kon (M⁻¹ s⁻¹)
Use M⁻¹ s⁻¹ as the unit, but write only the number.

# Binder, kon [M⁻¹ s⁻¹]
data = [
    ("L116A-A93D-PNT domain (domain or fragment, human, UniProt P41212 40-125, looked up, ETV6 PNT domain, human; gene purchased commercially (Biomatik); source: E. coli BL21 (λDE3), purified (Ni-NTA, thrombin cleavage); not shown: His6, N-terminal, cleaved) ALRMEEDSIRLPAHLRLQPIYWSRDDVAQWLKWAENEFSLRPIDSNTFEMNGKDLLLLTKEDFRYRSPHSGDVLYEALQHILKQRK", 230000),
    ("F77A-A93D-PNT domain (domain or fragment, human, UniProt P41212 40-125, looked up, ETV6 PNT domain, human; source: E. coli BL21 (λDE3), purified (Ni-NTA, thrombin cleavage); not shown: His6, N-terminal, cleaved) ALRMEEDSIRLPAHLRLQPIYWSRDDVAQWLKWAENEASLRPIDSNTFEMNGKDLLLLTKEDFRYRSPHSGDVLYELLQHILKQRK", 34000),
    ("E76A-A93D-PNT domain (domain or fragment, human, UniProt P41212 40-125, looked up, ETV6 PNT domain, human; source: E. coli BL21 (λDE3), purified (Ni-NTA, thrombin cleavage); not shown: His6, N-terminal, cleaved) ALRMEEDSIRLPAHLRLQPIYWSRDDVAQWLKWAENAFSLRPIDSNTFEMNGKDLLLLTKEDFRYRSPHSGDVLYELLQHILKQRK", 620000),
]

Query: Report kon for S47A-A93D-PNT domain (domain or fragment, human, UniProt P41212 40-125, looked up, ETV6 PNT domain, human; source: E. coli BL21 (λDE3), purified (Ni-NTA, thrombin cleavage); not shown: His6, N-terminal, cleaved) ALRMEEDAIRLPAHLRLQPIYWSRDDVAQWLKWAENEFSLRPIDSNTFEMNGKDLLLLTKEDFRYRSPHSGDVLYELLQHILKQRK please.
Response: 210000

Query: Report kon for R80A-A93D-PNT domain (domain or fragment, human, UniProt P41212 40-125, looked up, ETV6 PNT domain, human; source: E. coli BL21 (λDE3), purified (Ni-NTA, thrombin cleavage); not shown: His6, N-terminal, cleaved) ALRMEEDSIRLPAHLRLQPIYWSRDDVAQWLKWAENEFSLAPIDSNTFEMNGKDLLLLTKEDFRYRSPHSGDVLYELLQHILKQRK please.
Response: 91000

Query: Report kon for A93D-PNT domain (ETV6 residues 40-125 with the A93D mutation) (domain or fragment, human, UniProt P41212 40-125, looked up, ETV6 PNT domain fragment, human, residues 40-125; expressed as residues 1-125 and cut by thrombin at the internal site V37-P38-R39/A40; 15N- or 13C/15N-labelled or unlabelled in NMR; also called A93D-PNT domain analyte; source: E. coli BL21 (λDE3), purified (Ni-NTA, thrombin cleavage, Superdex S75; size exclusion omitted for SPR); not shown: His6, N-terminal, cleaved) ALRMEEDSIRLPAHLRLQPIYWSRDDVAQWLKWAENEFSLRPIDSNTFEMNGKDLLLLTKEDFRYRSPHSGDVLYELLQHILKQRK please.
Response: 200000

Query: Report kon for R103A-A93D-PNT domain (domain or fragment, human, UniProt P41212 40-125, looked up, ETV6 PNT domain, human; source: E. coli BL21 (λDE3), purified (Ni-NTA, thrombin cleavage); not shown: His6, N-terminal, cleaved) ALRMEEDSIRLPAHLRLQPIYWSRDDVAQWLKWAENEFSLRPIDSNTFEMNGKDLLLLTKEDFAYRSPHSGDVLYELLQHILKQRK please.
Response: 250000

Query: Report kon for H108A-A93D-PNT domain (domain or fragment, human, UniProt P41212 40-125, looked up, ETV6 PNT domain, human; source: E. coli BL21 (λDE3), purified (Ni-NTA, thrombin cleavage); not shown: His6, N-terminal, cleaved) ALRMEEDSIRLPAHLRLQPIYWSRDDVAQWLKWAENEFSLRPIDSNTFEMNGKDLLLLTKEDFRYRSPASGDVLYELLQHILKQRK please.
Response: 260000

Query: Report kon for E115A-A93D-PNT domain (domain or fragment, human, UniProt P41212 40-125, looked up, ETV6 PNT domain, human; source: E. coli BL21 (λDE3), purified (Ni-NTA, thrombin cleavage); not shown: His6, N-terminal, cleaved) ALRMEEDSIRLPAHLRLQPIYWSRDDVAQWLKWAENEFSLRPIDSNTFEMNGKDLLLLTKEDFRYRSPHSGDVLYALLQHILKQRK please.
Response: 230000
